target-under-test: transiently expressed FGFR1 IIIc in Cos-1 cells (Homo sapiens, UniProt P11362)
Construct: The clone was full-length, wild-type FGFR1 IIIc isoform
Sequence (P11362 22-822): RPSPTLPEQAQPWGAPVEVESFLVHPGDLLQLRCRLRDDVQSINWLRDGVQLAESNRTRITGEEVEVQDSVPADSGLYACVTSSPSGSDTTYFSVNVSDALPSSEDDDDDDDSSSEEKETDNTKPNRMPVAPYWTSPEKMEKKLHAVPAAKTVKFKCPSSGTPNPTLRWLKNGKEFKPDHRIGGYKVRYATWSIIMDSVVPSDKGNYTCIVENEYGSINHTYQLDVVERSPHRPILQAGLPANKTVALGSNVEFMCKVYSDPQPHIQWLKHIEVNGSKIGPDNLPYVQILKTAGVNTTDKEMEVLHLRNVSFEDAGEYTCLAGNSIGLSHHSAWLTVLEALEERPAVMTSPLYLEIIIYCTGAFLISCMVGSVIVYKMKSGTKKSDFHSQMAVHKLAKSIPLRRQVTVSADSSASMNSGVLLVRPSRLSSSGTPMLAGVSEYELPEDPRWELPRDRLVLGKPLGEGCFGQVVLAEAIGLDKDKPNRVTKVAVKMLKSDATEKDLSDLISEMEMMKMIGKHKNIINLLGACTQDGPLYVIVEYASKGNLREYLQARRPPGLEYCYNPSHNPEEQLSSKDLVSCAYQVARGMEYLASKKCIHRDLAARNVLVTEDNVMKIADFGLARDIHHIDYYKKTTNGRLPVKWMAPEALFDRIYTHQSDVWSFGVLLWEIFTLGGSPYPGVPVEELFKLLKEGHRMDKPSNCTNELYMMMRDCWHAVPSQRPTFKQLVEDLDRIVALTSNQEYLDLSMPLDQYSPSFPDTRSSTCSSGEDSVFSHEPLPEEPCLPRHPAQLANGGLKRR
measurement-protocol: Cell FGFR1 - cell based inhibition of transiently expressed FGFR1 IIIc phosphorylation
conditions-used: phospho-FGFR1
value-type: IC50 (nM)
# value in nM; strip the unit string

Problem: What value of IC50 has been reported for the following compound? COc1cc(CCc2cc(NC(=O)c3ccc(OCCN4CCC(F)(F)CC4)cc3)n[nH]2)cc(OC)c1 [Example 55]
Solution: 460

Problem: Now consider COc1cc(CCc2cc(NC(=O)c3ccc(CC(C)N)cc3)n[nH]2)cc(OC)c1 (centres unmarked) [Example 49] .
Solution: 1470

----------
Please provide measured IC50 for the entries that follow.
target-under-test: UniProt:P11362
measurement-protocol: FGFR Kinase assay - Caliper; on FGFR Kinase assay - Caliper, IC50: 408 µM ATP
Type: biochemical
conditions-used: FGFR1 […], 408 uM ATP; mean of n as printed; read-out: FGFR Kinase assay - Caliper, IC50
# value in nM; strip the unit string

Problem: What value of IC50 has been reported for the following compound? `COc1cccc(CCc2cc(NC(=O)c3ccc(S(=O)(=O)N(C)C)cc3)[nH]n2)c1`
Solution: 800

Problem: Now consider `COc1cccc(CCc2cc(NC(=O)c3ccc(NS(C)(=O)=O)cc3)[nH]n2)c1` .
Solution: 260

Problem: Now consider `COc1cc(CCc2cc(NC(=O)c3ccc(OCCO)cc3)n[nH]2)cc(OC)c1` .
Solution: 39

Problem: Now consider `COc1cc(COc2cc(NC(=O)c3cnc(N4CCN(C)CC4)nc3)n[nH]2)cc(OC)c1` .
Solution: 44

----------
target-under-test: UniProtKB P11362
measurement-protocol: FGFR Kinase assay - Caliper
Format: biochemical
conditions-used: FGFR inhibition test, Caliper; read-out: Activity class (FGFR Kinase assay - Caliper)
Please provide measured IC50 for the entries that follow.

Problem: What value of IC50 has been reported for the following compound? `COc1cccc(CCc2cc(NC(=O)c3ccc(OC)nc3)[nH]n2)c1`
Solution: 300 to 1000 nM

Problem: Now consider `COc1cccc(CCc2cc(NC(=O)c3ccc(C)nc3)[nH]n2)c1` .
Solution: 300 to 1000 nM

Problem: Now consider `COc1cc(CCc2cc(NC(=O)c3ccc(N4CCOCC4)cc3)[nH]n2)cc(OC)c1` .
Solution: < 300 nM

Problem: Now consider `CN1CCN(c2ccc(C(=O)Nc3cc(CCc4ccoc4)n[nH]3)cc2)CC1` .
Solution: < 300 nM

Problem: Now consider `COc1cccc(CCc2cc(NC(=O)c3cnc(C)cn3)[nH]n2)c1` .
Solution: 300 to 1000 nM

Problem: Now consider `COc1cccc(CCc2cc(NC(=O)c3ccc(NC(C)=O)cc3)[nH]n2)c1` .
Solution: 300 to 1000 nM

Problem: Now consider `C#CCNc1ccc(C(=O)Nc2cc(CCc3cccc(OC)c3)n[nH]2)nc1` .
Solution: 300 to 1000 nM

----------
target-under-test: UniProt:P11362
measurement-protocol: FGFR Kinase assay - Caliper Echo Dosing
Assay type: biochemical
conditions-used: FGFR1 7.2 nM, 408 uM ATP, acoustic dosing; geometric mean of n
value-type: pIC50
Please express pIC50 as -log10 of the molar concentration.

Problem: What value of pIC50 has been reported for the following compound? COc1cc(COc2cc(NC(=O)c3ccc(N4CCN(C)C(C)C4)s3)[nH]n2)cc(OC)c1 (stereo not shown)
Solution: 9.34

Problem: Now consider `COc1cc(COc2cc(NC(=O)c3cnc(N4C[C@@H](C)N(CC#N)[C@@H](C)C4)cn3)[nH]n2)cc(OC)c1` .
Solution: 8.46

Problem: Now consider COc1cc(CCc2cc(NC(=O)c3cnc(N4CCN(C)C(C)C4)nc3)[nH]n2)cc(OC)c1 (stereo not shown) .
Solution: 8.59

Problem: Now consider COc1cc(CCc2cc(NC(=O)c3ccc(CN(C)CC4CCCO4)cc3)n[nH]2)cc(OC)c1 (stereo not shown) .
Solution: 8.28

----------
target-under-test: His6-tagged FGFR kinase domain (Homo sapiens, UniProt P11362, C488A/C584S)
Construct: FGFR kinase domain (amino acids 458-765, C488A, C584S) N-terminally fused to a His6-tag and TEV cleavage site; His6-tag plus linker and TEV cleavage site (printed as X1); made in house
measurement-protocol: FGFR Kinase assay - Elisa
Type: biochemical
conditions-used: FGFR inhibition test, Elisa; read-out: Activity class (FGFR Kinase assay - Elisa)
value-type: IC50

Problem: What value of IC50 has been reported for the following molecule? `COc1cccc(CCc2cc(NC(=O)c3cnc(C)cn3)[nH]n2)c1`
Solution: 0.3 to 1 µM

Problem: Now consider `COc1cccc(CCc2cc(NC(=O)c3ccc(NC(C)=O)cc3)[nH]n2)c1` .
Solution: < 0.3 µM

Problem: Now consider `CN1CCN(c2ccc(C(=O)Nc3cc(CCc4cccnc4)n[nH]3)cc2)CC1` .
Solution: < 0.3 µM

Problem: Now consider `CN1CCN(c2ccc(C(=O)Nc3cc(CCc4ccccc4)n[nH]3)cc2)CC1` .
Solution: < 0.3 µM

Problem: Now consider `COc1ccc(C(=O)Nc2cc(CCc3cc(OC)cc(OC)c3)n[nH]2)cc1` .
Solution: < 0.3 µM

----------
Please provide measured pIC50 for the entries that follow.
target-under-test: UniProtKB P11362
measurement-protocol: FGFR Kinase assay - Caliper; on FGFR Kinase assay - Caliper, IC50: 408 µM ATP
Format: biochemical
conditions-used: FGFR1 […], 408 uM ATP; mean of n as printed; read-out: FGFR Kinase assay - Caliper, IC50
Please express pIC50 as -log10 of the molar concentration.

Problem: What value of pIC50 has been reported for the following molecule? `CN(C)Cc1ccc(CCc2cc(NC(=O)c3ccc(N4CCN(C)CC4)cc3)n[nH]2)o1`
Solution: 6.47

Problem: Now consider `COc1cccc(CCc2cc(NC(=O)c3ccc(CCN4CCCC4)nc3)[nH]n2)c1` .
Solution: 6.62

Problem: Now consider `COC(=O)c1ccc(C(=O)Nc2cc(CCc3cccc(OC)c3)n[nH]2)nc1` .
Solution: 4.17

Problem: Now consider `COc1cccc(CCc2cc(NC(=O)c3ccc(S(C)(=O)=O)cc3)[nH]n2)c1` .
Solution: 6.96

----------
target-under-test: FGFR1 active kinase (Homo sapiens)
Sequence (P11362 22-822): as above
measurement-protocol: FGFR Kinase assay - Caliper; on FGFR Kinase assay - Caliper, IC50: 408 µM ATP
Assay type: biochemical
conditions-used: FGFR1 […], 408 uM ATP; mean of n as printed; read-out: FGFR Kinase assay - Caliper, IC50
value-type: IC50 (nM)
# value in nM; strip the unit string

Problem: What value of IC50 has been reported for the following molecule? `COc1cc(CCc2cc(NC(=O)c3ccc(CN4CCc5ccc(C#N)cc5C4)cc3)n[nH]2)cc(OC)c1`
Solution: 486

Problem: Now consider `COc1cc(CCc2cc(NC(=O)c3ccc(N4CCNCC4)s3)n[nH]2)cc(OC)c1` .
Solution: 22

Problem: Now consider `COc1cc(CCc2cc(NC(=O)c3ccc(C4CCN(C)CC4)cc3)n[nH]2)cc(OC)c1` .
Solution: 7.9

Problem: Now consider `COc1cccc(CCc2cc(NC(=O)c3ccc(NC(=O)c4ccccc4)cc3)[nH]n2)c1` .
Solution: 231000

----------
target-under-test: FGFR1 active kinase (Homo sapiens)
measurement-protocol: FGFR Kinase assay - Caliper Echo Dosing
Format: biochemical
conditions-used: FGFR1 7.2 nM, 408 uM ATP, acoustic dosing; geometric mean of n
value-type: pIC50
Please express pIC50 as -log10 of the molar concentration.

Problem: What value of pIC50 has been reported for the following compound? `COc1cc(CCc2cc(NC(=O)c3cnc(C4CCN(C)CC4)nc3)[nH]n2)cc(OC)c1`
Solution: 7.44

Problem: Now consider `COc1cc(CCc2cc(NC(=O)c3ccc(N4C[C@@H](C)N(C)[C@@H](C)C4)cc3)[nH]n2)cc(OC)c1` .
Solution: 9.35

Problem: Now consider `C=CCN1CCCN(c2cnc(C(=O)Nc3cc(CCc4cc(OC)cc(OC)c4)n[nH]3)cn2)CC1` .
Solution: 8.47

Problem: Now consider `COc1cc(CCc2cc(NC(=O)c3cnc(N4CCCN(C5CC5)CC4)cn3)[nH]n2)cc(OC)c1` .
Solution: 8.43

Problem: Now consider `CCN1CCCN(c2cnc(C(=O)Nc3cc(CCc4cc(OC)cc(OC)c4)n[nH]3)cn2)CC1` .
Solution: 8.57

Problem: Now consider `COc1cc(CCc2cc(NC(=O)c3cnc(N4CCN[C@@H](C(C)C)C4)nc3)[nH]n2)cc(OC)c1` .
Solution: 8.36

Problem: Now consider `COc1cc(COc2cc(NC(=O)c3ccc(N4CCN(C)CC4)s3)[nH]n2)cc(OC)c1` .
Solution: 8.96
